study.system: Polyadenylate-binding protein 1 (Homo sapiens, UniProt P11940)
Sequence (P11940 whole entry): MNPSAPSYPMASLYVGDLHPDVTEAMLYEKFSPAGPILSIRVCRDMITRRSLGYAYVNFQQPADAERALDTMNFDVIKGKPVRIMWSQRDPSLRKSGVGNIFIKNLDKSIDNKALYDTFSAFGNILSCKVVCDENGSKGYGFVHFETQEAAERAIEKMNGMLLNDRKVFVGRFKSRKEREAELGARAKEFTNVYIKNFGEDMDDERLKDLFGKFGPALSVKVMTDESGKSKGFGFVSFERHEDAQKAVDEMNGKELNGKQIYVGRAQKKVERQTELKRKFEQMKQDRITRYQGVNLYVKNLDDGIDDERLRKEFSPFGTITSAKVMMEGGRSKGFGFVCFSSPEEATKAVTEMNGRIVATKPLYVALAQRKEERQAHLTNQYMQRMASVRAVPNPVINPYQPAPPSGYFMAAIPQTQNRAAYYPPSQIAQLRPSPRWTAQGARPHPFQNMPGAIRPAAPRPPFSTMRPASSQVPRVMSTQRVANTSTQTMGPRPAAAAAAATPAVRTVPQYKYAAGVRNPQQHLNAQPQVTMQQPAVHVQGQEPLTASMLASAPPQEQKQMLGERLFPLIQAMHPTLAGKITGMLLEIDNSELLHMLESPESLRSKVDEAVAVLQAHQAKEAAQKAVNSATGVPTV
test.name: MLLE binding blockers, Cy5 peptide tracer – biochemical, fluorescence polarization, Cy5-PAM2 peptide, secondary, miRNA deadenylation inhibitor project, dose response (AID 602260)
Format: functional
run.conditions: read-out: IC50_Mean
Active and inactive are the calls of the source.
Please provide measured IC50 for the entries that follow.

Guide cases for IC50, answers given:
- compound: "Oc1ccc(Br)cc1/C=N/c1cccn2cc(-c3ccccc3)nc12"
  IC50: "> 66 µM (inactive)"
- compound: "Cc1c(O)ccc2cc(S(=O)(=O)c3ccccc3)c(=O)oc12"
  IC50: "> 66 µM (inactive)"
- compound: "Oc1c2ccccc2c2c3c(cccc13)N=N2 [SP-600125]"
  IC50: "> 66 µM (inactive)"
- compound: "COc1ccc(S(=O)(=O)N(C(=O)C(C)C)c2ccc3oc(=O)sc3c2)cc1"
  IC50: "> 66 µM (inactive)"
- compound: "CN(C)CCCN1C(=O)c2cccc3c(Br)ccc(c23)C1=O"
  IC50: "> 66 µM (inactive)"

Turning to the following compound.
q: Quick check: IC50 on Polyadenylate-binding protein 1 (Homo sapiens, UniProt P11940), item Cc1ccc(N2C(=O)C3C4C=CC(CN=C(S)Nc5cccc(Cl)c5)(O4)C3C2=O)cc1 (stereo unspecified) ?
a: > 66 µM (inactive)

----------
study.system: Short transient receptor potential channel 4 (Mus musculus, UniProt Q9QUQ5)
Sequence (Q9QUQ5 whole entry): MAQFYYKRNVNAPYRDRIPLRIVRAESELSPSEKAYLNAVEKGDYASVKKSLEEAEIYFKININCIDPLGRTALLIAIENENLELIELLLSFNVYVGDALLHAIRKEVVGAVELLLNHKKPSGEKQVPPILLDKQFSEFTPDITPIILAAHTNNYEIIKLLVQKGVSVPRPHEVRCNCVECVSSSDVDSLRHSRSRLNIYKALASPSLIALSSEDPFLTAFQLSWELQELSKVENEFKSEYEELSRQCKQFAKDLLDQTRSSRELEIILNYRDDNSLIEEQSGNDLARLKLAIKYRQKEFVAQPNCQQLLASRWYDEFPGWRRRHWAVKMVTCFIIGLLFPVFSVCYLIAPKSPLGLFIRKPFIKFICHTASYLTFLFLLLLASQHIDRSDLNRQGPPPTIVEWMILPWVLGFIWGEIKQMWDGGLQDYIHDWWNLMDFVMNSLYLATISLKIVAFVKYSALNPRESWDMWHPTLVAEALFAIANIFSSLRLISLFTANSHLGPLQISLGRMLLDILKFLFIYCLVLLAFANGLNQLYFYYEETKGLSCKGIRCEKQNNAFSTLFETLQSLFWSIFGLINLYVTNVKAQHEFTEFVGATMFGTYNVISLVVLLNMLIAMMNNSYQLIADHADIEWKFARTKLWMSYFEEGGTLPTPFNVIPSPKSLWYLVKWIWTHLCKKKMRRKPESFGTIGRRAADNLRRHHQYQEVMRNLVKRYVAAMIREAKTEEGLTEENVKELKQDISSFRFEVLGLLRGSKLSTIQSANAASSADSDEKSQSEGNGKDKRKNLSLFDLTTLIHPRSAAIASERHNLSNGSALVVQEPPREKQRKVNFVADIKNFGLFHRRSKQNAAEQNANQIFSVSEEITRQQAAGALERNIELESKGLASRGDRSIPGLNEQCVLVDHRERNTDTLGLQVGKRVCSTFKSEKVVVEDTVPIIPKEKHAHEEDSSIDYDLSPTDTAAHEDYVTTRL
test.name: calcium entry via TRPC4 opening agents – cell-based, HEK293 TRPC4/mu-opioid, Fluo-4 calcium, dose response (AID 434937)
Format: functional
The source made the active and inactive calls.
experimental.endpoint: EC50

- compound: "O=C(c1sc2ccccc2c1Cl)N(Cc1cccs1)C1CCS(=O)(=O)C1 (stereo not given)"
  experimental.endpoint: "EC50"
  recorded.value: "1.88 µM (active)"
- compound: "CC(=O)c1ccc(S(=O)(=O)NCc2ccc(C(=O)NCC(c3ccccc3)N(C)C)cc2)cc1 (stereo not given)"
  experimental.endpoint: "EC50"
  recorded.value: "0.596 µM (active)"
- compound: "Cc1onc(-c2ccccc2)c1C(=O)NNC(=S)NC(=O)/C=C/c1ccccc1"
  experimental.endpoint: "EC50"
  recorded.value: "4.22 µM (active)"
- compound: "COC(=O)NCC(c1ccc2c(c1)OCO2)N1CCN(c2ccc(OC)cc2)CC1 (stereo not given)"
  experimental.endpoint: "EC50"
  recorded.value: "0.944 µM (active)"

Turning to the following compound.
q: EC50 lookup needed for NCCCn1c(C(=O)c2cc(Cl)c(N)c(Cl)c2)c2ccccc2[n+]1[O-] , thanks.
a: 1.88 µM (active)

----------
study.system: Leucine aminopeptidase (Plasmodium falciparum 3D7, UniProt Q8IL11)
Sequence (Q8IL11 whole entry): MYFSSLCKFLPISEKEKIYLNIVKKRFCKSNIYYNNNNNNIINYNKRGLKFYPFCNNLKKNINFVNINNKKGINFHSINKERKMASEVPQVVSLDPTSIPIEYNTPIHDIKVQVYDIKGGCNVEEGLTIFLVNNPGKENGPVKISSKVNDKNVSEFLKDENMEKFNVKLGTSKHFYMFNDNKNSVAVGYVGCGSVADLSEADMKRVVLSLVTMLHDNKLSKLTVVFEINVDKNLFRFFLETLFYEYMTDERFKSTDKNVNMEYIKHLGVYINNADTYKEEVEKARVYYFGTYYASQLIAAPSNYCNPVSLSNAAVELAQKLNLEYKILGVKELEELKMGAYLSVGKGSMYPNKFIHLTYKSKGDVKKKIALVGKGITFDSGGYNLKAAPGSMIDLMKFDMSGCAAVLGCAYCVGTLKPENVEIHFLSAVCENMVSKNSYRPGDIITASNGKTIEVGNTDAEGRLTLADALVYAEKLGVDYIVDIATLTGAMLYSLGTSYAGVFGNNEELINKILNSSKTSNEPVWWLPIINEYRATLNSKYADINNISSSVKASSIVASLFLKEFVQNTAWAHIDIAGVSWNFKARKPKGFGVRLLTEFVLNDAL
test.name: P. falciparum M17LAP inhibitors, primary screen, biochemical, fluorogenic H-Leu-NHMec substrate, 1536-well (AID 1619)
Type: functional
The source made the active and inactive calls.
Please provide measured IC50 for the entries that follow.

Guide cases for IC50, answers given:
- molecule: "Oc1ccc(-c2n[nH]c(=S)[nH]2)cc1"
  recorded.value: "20.6 µM (active)"
- molecule: "COc1ccc(N2Nc3[nH]nc(N)c3N2)cc1"
  recorded.value: "10.4 µM (active)"

Provide IC50 values for the following items, in order.
1. C=CCn1c(SCC(=O)NCc2ccc3c(c2)OCO3)nnc1C1COc2ccccc2O1 (configuration not stated)
2. CCc1c(O)cc(=O)n(-c2ccccc2)c1-c1ccccc1
3. CC[n+]1c(/C=C/c2ccc(N(C)C)cc2)ccc2ccccc21
4. Cc1nnc(SCC2=C(C(=O)O)N3C(=O)C(NC(=O)Cn4nc(C(F)F)c(Cl)c4C)C3SC2)s1 (configuration not stated)
5. O=C(CSc1nc(O)cc(-c2ccccc2)n1)Nc1ccccn1

a:
< 1 µM (active)
23.5 µM (active)
110 µM (active)
13.9 µM (active)
8.69 µM (active)

----------
Below are AC50 values recorded for Cytochrome P450 3A4 (Homo sapiens).

Guide cases for AC50, answers given:
- chemical.string: "CCOC(=O)c1c(-c2cccc(C)c2)csc1NC(=O)c1c(-c2ccccc2)noc1C"
  experimental.endpoint: "AC50"
  recorded.value: "5.62 µM (inconclusive)"
- chemical.string: "Cc1ccccc1C(=O)Oc1ccc(Br)cc1C(=S)N1CCCC1"
  experimental.endpoint: "AC50"
  recorded.value: "8.91 µM (inconclusive)"

Turning to the following molecule.
q: AC50 lookup needed for CN1CCN(CCCNC(=O)c2ccc(CSCc3cccc(Cl)c3)o2)CC1 , thanks.
a: 22.4 µM (inconclusive)

----------
study.system: UniProt:P10520
Sequence (P10520 whole entry): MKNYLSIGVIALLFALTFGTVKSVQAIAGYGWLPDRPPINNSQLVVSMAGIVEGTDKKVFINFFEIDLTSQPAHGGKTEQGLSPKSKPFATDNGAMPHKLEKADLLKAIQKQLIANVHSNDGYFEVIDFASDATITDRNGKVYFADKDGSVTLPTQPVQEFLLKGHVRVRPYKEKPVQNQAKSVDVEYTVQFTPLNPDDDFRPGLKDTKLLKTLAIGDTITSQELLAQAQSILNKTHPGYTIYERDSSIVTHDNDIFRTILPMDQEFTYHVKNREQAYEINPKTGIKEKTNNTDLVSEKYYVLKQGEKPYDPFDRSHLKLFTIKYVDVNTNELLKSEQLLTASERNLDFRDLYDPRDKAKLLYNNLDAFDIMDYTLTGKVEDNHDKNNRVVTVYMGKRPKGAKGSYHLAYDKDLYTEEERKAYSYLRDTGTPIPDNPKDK
test.name: viability-normalized secreted streptokinase activity reduction – plasminogen activation absorbance, OD405, dose response (AID 1914);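 note: secreted streptokinase activity via plasminogen activation per viability signal from cell pellet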
Format: functional, Streptococcus pyogenes M1 GAS
Active and inactive are the calls of the source.
experimental.endpoint: EC50

Guide cases for EC50, answers given:
- compound: "CCN(CC)c1ccc(/C=N/NC(=O)CNC(=O)C2COc3ccccc3O2)c(O)c1 (stereo not given)"
  recorded.value: "> 150 µM (not active)"
- compound: "CCOC(=O)c1sc2nccc(N(C)C)c2c1N=CNOCc1c(F)cccc1Cl"
  recorded.value: "27 µM (active)"
- compound: "Fc1ccc(N2CCN(Cc3c[nH]nc3-c3ccccc3)CC2)cc1"
  recorded.value: "> 150 µM (not active)"
- compound: "CCN1C(=O)C(CC(=O)Nc2ccc(Br)cc2)N(CCCc2ccccc2)C1=S (stereo not given)"
  recorded.value: "1.98 µM (active)"
- compound: "C/C(=N\\Nc1ccc(Cl)c(Cl)c1)c1ccc(-n2ccnc2)cc1"
  recorded.value: "17.2 µM (active)"

Provide EC50 values for the following items, in order.
1. CCOC(=O)c1c2c(n(C)c1COC)C(=O)C(=O)c1ccc(Br)cc1-2
2. CCn1cc(C(=O)O)c(=O)c2cc(F)c(N/N=C/c3ccccc3[N+](=O)[O-])cc21
3. Cc1ccccc1-c1cc2nc(-c3ccc([N+](=O)[O-])cc3)cc(O)n2n1
4. COc1ccc2nc(C3CCCCC3)nc(C3CCCCC3)c2c1
5. COc1cccc(N2CCN(c3[nH]cnc4c5cc(F)ccc5nc3-4)CC2C)c1 (stereo not given)

a:
1: > 150 µM (not active); 2: > 150 µM (not active); 3: > 150 µM (not active); 4: > 150 µM (not active); 5: 15.3 µM (active)

----------
study.system: UniProtKB Q96LD8
Sequence (Q96LD8 whole entry): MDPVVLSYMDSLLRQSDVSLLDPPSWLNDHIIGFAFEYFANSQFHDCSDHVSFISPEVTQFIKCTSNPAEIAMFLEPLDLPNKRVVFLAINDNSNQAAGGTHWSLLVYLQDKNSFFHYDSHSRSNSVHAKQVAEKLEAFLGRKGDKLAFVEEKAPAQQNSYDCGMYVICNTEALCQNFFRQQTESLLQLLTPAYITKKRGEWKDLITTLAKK
Type: functional
Active and inactive are the calls of the source.
Parameter call: string, one of active, inactive

- compound: "CN(C)c1ccc(NC(=O)Oc2ccccc2)cc1"
  assigned.label: "inactive"
- compound: "COc1ccc(Cc2nnc(SCC(=O)N3CCc4ccccc4C3)o2)cc1"
  assigned.label: "inactive"
- compound: "COC(=O)c1ccccc1-c1ccc(C(c2c(C)n[nH]c2O)c2c(C)n[nH]c2O)o1"
  assigned.label: "active"

q: Please state the recorded outcome for this compound: O=C1Cc2ccccc2C(=O)N1c1ccc(F)cc1Cl
a: inactive

q: Please state the recorded outcome for this compound: CC1Cc2ccccc2N1C(=O)COC(=O)c1ccc([N+](=O)[O-])o1 (stereo not given)
a: active

----------
study.system: Corticotropin-releasing factor receptor 2/Corticotropin-releasing factor-binding protein (Homo sapiens, UniProt P24387+Q13324)
Sequence (Q13324 whole entry): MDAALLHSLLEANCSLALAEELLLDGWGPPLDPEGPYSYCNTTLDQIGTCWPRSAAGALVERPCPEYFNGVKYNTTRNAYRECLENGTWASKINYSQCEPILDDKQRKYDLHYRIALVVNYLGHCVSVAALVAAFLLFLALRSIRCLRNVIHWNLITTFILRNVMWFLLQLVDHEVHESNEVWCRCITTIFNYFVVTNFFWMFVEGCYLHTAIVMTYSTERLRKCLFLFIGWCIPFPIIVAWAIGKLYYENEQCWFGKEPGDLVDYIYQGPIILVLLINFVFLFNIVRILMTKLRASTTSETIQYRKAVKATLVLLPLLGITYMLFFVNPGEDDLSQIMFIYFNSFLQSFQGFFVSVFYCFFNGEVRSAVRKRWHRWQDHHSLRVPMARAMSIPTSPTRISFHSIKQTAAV
Sequence (P24387 whole entry): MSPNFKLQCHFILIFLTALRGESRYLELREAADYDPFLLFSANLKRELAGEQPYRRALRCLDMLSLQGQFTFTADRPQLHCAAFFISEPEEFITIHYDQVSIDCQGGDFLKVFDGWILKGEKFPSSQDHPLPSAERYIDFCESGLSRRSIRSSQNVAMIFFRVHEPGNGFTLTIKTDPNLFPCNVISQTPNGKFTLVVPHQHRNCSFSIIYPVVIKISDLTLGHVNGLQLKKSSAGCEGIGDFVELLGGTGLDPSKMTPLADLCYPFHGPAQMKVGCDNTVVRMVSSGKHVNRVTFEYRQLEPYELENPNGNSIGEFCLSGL
test.name: Dose Response confirmation of uHTS hits for small molecule antagonists of the CRF-binding protein and CRF-R2 receptor complex.
Format: functional
run.conditions: read-out: IC50_Mean
Active and inactive are the calls of the source.
Parameter call: string, one of active, inactive

- compound: "Cc1cc(C)nc(SCCC(=O)Nc2ccccc2C)n1"
  assigned.label: "inactive"

q: Please state the recorded outcome for this compound: Cc1ccc(N2C(=O)/C(=C\Nc3ccccc3-c3nnc(S)nc3O)c3ccccc3C2=O)c(C)c1
a: active

q: Please state the recorded outcome for this compound: COc1ccc(CCN2C(=O)CC(Cc3ccccc3)C2=O)cc1OC (stereo unspecified)
a: inactive

q: Please state the recorded outcome for this compound: Cc1ccccc1-c1cc2nc(-c3ccc([N+](=O)[O-])cc3)cc(O)n2n1
a: active

q: Please state the recorded outcome for this compound: Cc1c(C(=O)NCC2CCCO2)sc2nc(-c3ccc(F)cc3)cn12 (stereo unspecified)
a: inactive

q: Please state the recorded outcome for this compound: O=C(COC(=O)c1ccc([N+](=O)[O-])s1)Nc1cccc(S(=O)(=O)/N=C2/CCCCCN2)c1
a: inactive
